# system_tested: Epidermal growth factor receptor (Homo sapiens, UniProt P00533, L858R/T790M)
# Sequence (P00533 25-1210 T790M/L858R limits assumed): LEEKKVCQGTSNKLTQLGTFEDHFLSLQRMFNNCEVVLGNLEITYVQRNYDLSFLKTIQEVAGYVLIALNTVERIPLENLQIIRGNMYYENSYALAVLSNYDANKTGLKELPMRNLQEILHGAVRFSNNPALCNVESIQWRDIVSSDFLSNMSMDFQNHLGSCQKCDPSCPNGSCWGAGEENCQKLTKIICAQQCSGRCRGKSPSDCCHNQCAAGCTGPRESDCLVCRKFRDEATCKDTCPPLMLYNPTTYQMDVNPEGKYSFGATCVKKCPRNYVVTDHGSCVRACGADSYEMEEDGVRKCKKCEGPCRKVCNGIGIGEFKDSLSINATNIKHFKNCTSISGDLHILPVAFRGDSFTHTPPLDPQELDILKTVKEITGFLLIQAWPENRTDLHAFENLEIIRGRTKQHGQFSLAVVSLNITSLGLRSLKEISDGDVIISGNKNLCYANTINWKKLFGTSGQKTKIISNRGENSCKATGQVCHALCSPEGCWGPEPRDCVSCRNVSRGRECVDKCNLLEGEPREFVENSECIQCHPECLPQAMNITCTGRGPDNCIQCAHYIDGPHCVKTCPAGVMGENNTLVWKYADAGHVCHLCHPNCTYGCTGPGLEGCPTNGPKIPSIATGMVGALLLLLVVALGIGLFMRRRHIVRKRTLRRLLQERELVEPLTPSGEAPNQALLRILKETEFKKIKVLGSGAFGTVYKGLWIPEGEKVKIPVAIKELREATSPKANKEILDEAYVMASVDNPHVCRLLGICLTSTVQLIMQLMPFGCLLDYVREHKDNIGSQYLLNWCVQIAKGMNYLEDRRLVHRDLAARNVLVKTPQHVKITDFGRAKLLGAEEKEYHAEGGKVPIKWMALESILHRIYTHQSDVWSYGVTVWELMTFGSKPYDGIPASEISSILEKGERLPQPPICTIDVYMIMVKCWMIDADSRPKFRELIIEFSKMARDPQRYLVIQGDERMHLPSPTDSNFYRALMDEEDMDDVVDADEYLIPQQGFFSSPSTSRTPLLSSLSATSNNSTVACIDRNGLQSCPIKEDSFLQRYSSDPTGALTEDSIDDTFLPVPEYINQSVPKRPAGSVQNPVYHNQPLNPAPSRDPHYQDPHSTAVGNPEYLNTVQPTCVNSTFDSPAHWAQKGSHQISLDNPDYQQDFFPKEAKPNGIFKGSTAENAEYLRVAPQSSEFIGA
# protocol_notes: Inhibition of EGFR L858R/T790M mutant (unknown origin) expressed in baculovirus expression system by ELISA
pIC50: −log10 of the molar value.

{"columns": ["smiles_representation", "system_tested", "pIC50"],
 "data": [
  ["CN1CCN(c2ccc(Nc3ncc(Br)c(Nc4ccc5ncccc5c4)n3)cc2)CC1", "Epidermal growth factor receptor (Homo sapiens, UniProt P00533, L858R/T790M)", 5.11],
  ["CN1CCN(c2ccc(Nc3ncc(Cl)c(Nc4ccc5[nH]ccc5c4)n3)cc2)CC1", "Epidermal growth factor receptor (Homo sapiens, UniProt P00533, L858R/T790M)", 7.34],
  ["Cc1cnc(Nc2ccc(N3CCN(C)CC3)cc2)nc1Nc1ccc2[nH]ccc2c1", "Epidermal growth factor receptor (Homo sapiens, UniProt P00533, L858R/T790M)", 6.77],
  ["C=CC(=O)Nc1cc(Nc2ncc(Br)c(Nc3ccc4c(c3)CCC4)n2)ccc1N1CCN(C)CC1", "Epidermal growth factor receptor (Homo sapiens, UniProt P00533, L858R/T790M)", 7.56],
  ["CN1CCN(c2ccc(Nc3ncc(Br)c(Nc4ccc5ccn(C)c5c4)n3)cc2)CC1", "Epidermal growth factor receptor (Homo sapiens, UniProt P00533, L858R/T790M)", 7.68]
]}

----------
Entries and their measured Cmax follow.
# protocol_notes: Cmax in Sprague-Dawley rat at 1 mg/kg, iv and measured after 24 hrs by LC-MS/MS analysis
# Assay type: ADME, organism-based
# Parameters: dose 1 mg/kg, time 24 hrs, route iv
# recorded_conditions: in vivo
quantity_measured: Cmax (ng/mL)

{"columns": ["smiles_representation", "quantity_measured", "readout_value"],
 "data": [
  ["C=CC(=O)Nc1cc(Nc2ncc(Br)c(Nc3ccc4c(c3)CCC4)n2)c(OC)cc1N1CCN(C)CC1", "Cmax", 407],
  ["C=CC(=O)Nc1cc(Nc2ncc(Br)c(Nc3ccc4ccn(C)c4c3)n2)c(OC)cc1N1CCN(C)CC1", "Cmax", 235]
]}

----------
# system_tested: Epidermal growth factor receptor (Homo sapiens, UniProt P00533, T790M)
# Sequence (P00533 25-1210 T790M limits assumed): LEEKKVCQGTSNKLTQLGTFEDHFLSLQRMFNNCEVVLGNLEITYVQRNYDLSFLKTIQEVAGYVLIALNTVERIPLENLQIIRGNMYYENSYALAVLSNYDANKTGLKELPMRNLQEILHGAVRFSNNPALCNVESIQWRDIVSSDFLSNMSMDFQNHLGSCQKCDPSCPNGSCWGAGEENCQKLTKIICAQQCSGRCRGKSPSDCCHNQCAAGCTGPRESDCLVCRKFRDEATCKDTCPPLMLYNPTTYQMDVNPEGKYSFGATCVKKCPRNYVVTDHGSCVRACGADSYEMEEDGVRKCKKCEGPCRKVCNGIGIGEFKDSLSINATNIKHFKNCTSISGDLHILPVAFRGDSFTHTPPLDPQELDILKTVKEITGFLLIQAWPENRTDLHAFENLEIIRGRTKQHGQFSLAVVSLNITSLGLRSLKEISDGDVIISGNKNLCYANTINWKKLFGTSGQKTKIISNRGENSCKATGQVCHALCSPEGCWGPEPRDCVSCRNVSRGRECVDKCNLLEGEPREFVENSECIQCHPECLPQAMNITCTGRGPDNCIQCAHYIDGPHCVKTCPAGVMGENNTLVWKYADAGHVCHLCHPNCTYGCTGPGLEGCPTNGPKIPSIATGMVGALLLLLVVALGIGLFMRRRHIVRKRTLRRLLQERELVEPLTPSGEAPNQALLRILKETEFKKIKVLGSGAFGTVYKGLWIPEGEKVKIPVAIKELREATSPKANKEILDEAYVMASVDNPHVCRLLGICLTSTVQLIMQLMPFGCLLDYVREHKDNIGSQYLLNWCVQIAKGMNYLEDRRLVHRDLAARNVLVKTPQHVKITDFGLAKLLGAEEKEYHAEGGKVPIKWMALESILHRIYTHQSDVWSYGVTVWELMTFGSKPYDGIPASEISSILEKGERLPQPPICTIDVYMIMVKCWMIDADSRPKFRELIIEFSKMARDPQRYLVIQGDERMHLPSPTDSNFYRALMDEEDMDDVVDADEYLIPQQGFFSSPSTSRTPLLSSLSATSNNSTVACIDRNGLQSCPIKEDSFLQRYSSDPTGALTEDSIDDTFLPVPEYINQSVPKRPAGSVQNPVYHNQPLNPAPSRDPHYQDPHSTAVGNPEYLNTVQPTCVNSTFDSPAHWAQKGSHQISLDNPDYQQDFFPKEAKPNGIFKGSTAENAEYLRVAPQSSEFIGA
# protocol_notes: Inhibition of EGFR T790M mutant (unknown origin) expressed in baculovirus expression system by ELISA
pIC50: −log10 of the molar value.
Mark 1.0 for reported pIC50 of 7 or greater; mark 0.0 for anything smaller.

{"columns": ["smiles_representation", "label_value"],
 "data": [
  ["COc1cnc(Nc2ccc(N3CCN(C)CC3)cc2)nc1Nc1ccc2[nH]ccc2c1", 0.0],
  ["CN1CCN(c2ccc(Nc3ncc([N+](=O)[O-])c(Nc4ccc5[nH]ccc5c4)n3)cc2)CC1", 0.0],
  ["CN1CCN(c2ccc(Nc3ncc(Br)c(Nc4ccc5[nH]ccc5c4)n3)cc2)CC1", 1.0],
  ["Cc1cnc(Nc2ccc(N3CCN(C)CC3)cc2)nc1Nc1ccc2[nH]ccc2c1", 0.0],
  ["CN1CCN(c2ccc(Nc3ncc(F)c(Nc4ccc5[nH]ccc5c4)n3)cc2)CC1", 0.0]
]}

----------
# protocol_notes: Half life in Sprague-Dawley rat at 10 mg/kg, po and measured after 24 hrs by LC-MS/MS analysis
# Type: ADME, organism-based
# recorded_conditions: in vivo
quantity_measured: half-life (h)

{"columns": ["smiles_representation", "readout_value"],
 "data": [
  ["C=CC(=O)Nc1cc(Nc2ncc(Br)c(Nc3ccc4ccn(C)c4c3)n2)c(OC)cc1N1CCN(C)CC1", 3.25],
  ["C=CC(=O)Nc1cc(Nc2ncc(Br)c(Nc3ccc4c(c3)CCC4)n2)c(OC)cc1N1CCN(C)CC1", 3.54]
]}

----------
# system_tested: UniProt P00533
pIC50: −log10 of the molar value.
Known pIC50 of a selection of compounds

{"columns": ["smiles_representation", "prefix_operator", "pIC50"],
 "data": [
  ["Cc1cnc(Nc2ccc(N3CCN(C)CC3)cc2)nc1Nc1ccc2[nH]ccc2c1", "<", 6.00],
  ["CN1CCN(c2ccc(Nc3ncc(Br)c(Nc4ccc5cc[nH]c5c4)n3)cc2)CC1", "=", 5.85],
  ["C=CC(=O)Nc1cc(Nc2ncc(Br)c(Nc3ccc4cc[nH]c4c3)n2)ccc1N(C)CCN(C)C", "=", 8.06],
  ["CN1CCN(c2ccc(Nc3ncc(C(F)(F)F)c(Nc4ccc5[nH]ccc5c4)n3)cc2)CC1", "<", 6.00],
  ["CN1CCN(c2ccc(Nc3nccc(Nc4ccc5[nH]ccc5c4)n3)cc2)CC1", "=", 7.31],
  ["C=CC(=O)Nc1cc(Nc2ncc(Br)c(Nc3ccc4cc[nH]c4c3)n2)ccc1N1CCN(C)CC1", "=", 6.63],
  ["CN1CCN(c2ccc(Nc3ncc(Cl)c(Nc4ccc5[nH]ccc5c4)n3)cc2)CC1", "=", 6.25],
  ["CN1CCN(c2ccc(Nc3ncc([N+](=O)[O-])c(Nc4ccc5[nH]ccc5c4)n3)cc2)CC1", "<", 6.00],
  ["CC(=O)N1CCc2cc(Nc3nc(Nc4ccc(N5CCN(C)CC5)cc4)ncc3Br)ccc21", "=", 4.84]
]}

----------
Measured Vd values are reported for all entries that follow.
# protocol_notes: Volume of distribution at steady state in Sprague-Dawley rat at 1 mg/kg, iv and measured after 24 hrs by LC-MS/MS analysis
# Assay type: ADME, organism-based
# recorded_conditions: in vivo, read-out: Vdss
quantity_measured: Vd

{"columns": ["smiles_representation", "quantity_measured", "readout_value"],
 "data": [
  ["C=CC(=O)Nc1cc(Nc2ncc(Br)c(Nc3ccc4ccn(C)c4c3)n2)c(OC)cc1N1CCN(C)CC1", "Vd", "6.56 L/kg"],
  ["C=CC(=O)Nc1cc(Nc2ncc(Br)c(Nc3ccc4c(c3)CCC4)n2)c(OC)cc1N1CCN(C)CC1", "Vd", "4.83 L/kg"]
]}

----------
# protocol_notes: Clearance in Sprague-Dawley rat at 1 mg/kg, iv and measured after 24 hrs by LC-MS/MS analysis
# Format: ADME, organism-based
# recorded_conditions: in vivo
clearance values, listed per item
quantity_measured: clearance

{"columns": ["smiles_representation", "readout_value"],
 "data": [
  ["C=CC(=O)Nc1cc(Nc2ncc(Br)c(Nc3ccc4ccn(C)c4c3)n2)c(OC)cc1N1CCN(C)CC1", "32.6 mL/min/kg"],
  ["C=CC(=O)Nc1cc(Nc2ncc(Br)c(Nc3ccc4c(c3)CCC4)n2)c(OC)cc1N1CCN(C)CC1", "15.9 mL/min/kg"]
]}

----------
# Organism: Homo sapiens
# protocol_notes: Selectivity ratio, ratio of IC50 for inhibition of wild type EGFR (unknown origin) to IC50 for inhibition of EGFR L858R/T790M mutant (unknown origin)

{"columns": ["smiles_representation", "Ratio IC50"],
 "data": [
  ["CN1CCN(c2ccc(Nc3ncc(Br)c(Nc4ccc5[nH]ccc5c4)n3)cc2)CC1", 23],
  ["CN1CCN(c2ccc(Nc3ncc(Br)c(Nc4ccc5nccnc5c4)n3)cc2)CC1", 2],
  ["CN1CCN(c2ccc(Nc3ncc(Br)c(Nc4ccc5c(c4)CCC5)n3)cc2)CC1", 194],
  ["CN1CCN(c2ccc(Nc3ncc(Br)c(Nc4ccc5ccn(C)c5c4)n3)cc2)CC1", 62],
  ["CN1CCN(c2ccc(Nc3ncc(Br)c(Nc4ccc5[nH]ncc5c4)n3)cc2)CC1", 10],
  ["CN1CCN(c2ccc(Nc3ncc(Br)c(Nc4ccc5[nH]c(Cc6cccc(F)c6)cc5c4)n3)cc2)CC1", 7],
  ["CC(=O)N1CCc2cc(Nc3nc(Nc4ccc(N5CCN(C)CC5)cc4)ncc3Br)ccc21", 2],
  ["CN1CCN(c2ccc(Nc3ncc(Br)c(Nc4ccc5cn[nH]c5c4)n3)cc2)CC1", 26],
  ["CN1CCN(c2ccc(Nc3ncc(Br)c(Nc4ccc5cc[nH]c5c4)n3)cc2)CC1", 74]
]}

----------
# system_tested: Epidermal growth factor receptor (Homo sapiens, UniProt P00533, L858R/T790M)
# protocol_notes: Inhibition of EGFR L858R/T790M mutant (unknown origin) expressed in baculovirus expression system by ELISA
pIC50: −log10 of the molar value.
quantity_measured: pIC50

{"columns": ["smiles_representation", "quantity_measured", "readout_value"],
 "data": [
  ["C=CC(=O)Nc1cc(Nc2ncc(Br)c(Nc3ccc4c(c3)CCC4)n2)ccc1N(C)CCN(C)C", "pIC50", 9.22],
  ["CN1CCN(c2ccc(Nc3ncc([N+](=O)[O-])c(Nc4ccc5[nH]ccc5c4)n3)cc2)CC1", "pIC50", 6.04],
  ["CN1CCN(c2ccc(Nc3ncc(Br)c(Nc4ccc5[nH]ccc5c4)n3)cc2)CC1", "pIC50", 7.46],
  ["CC(=O)N1CCc2cc(Nc3nc(Nc4ccc(N5CCN(C)CC5)cc4)ncc3Br)ccc21", "pIC50", 5.22],
  ["COc1cnc(Nc2ccc(N3CCN(C)CC3)cc2)nc1Nc1ccc2[nH]ccc2c1", "pIC50", 6.81],
  ["CN1CCN(c2ccc(Nc3ncc(Br)c(Nc4ccc5nccnc5c4)n3)cc2)CC1", "pIC50", 6.63],
  ["CC(=O)N1CCc2ccc(Nc3nc(Nc4ccc(N5CCN(C)CC5)cc4)ncc3Br)cc21", "pIC50", 5.07],
  ["CN1CCN(c2ccc(Nc3ncc(Br)c(Nc4ccc5[nH]c(Cc6cccc(F)c6)cc5c4)n3)cc2)CC1", "pIC50", 7.31],
  ["C=CC(=O)Nc1cc(Nc2ncc(Br)c(Nc3ccc4ccn(C)c4c3)n2)c(OC)cc1N1CCN(C)CC1", "pIC50", 8.39],
  ["C=CC(=O)Nc1cc(Nc2ncc(Br)c(Nc3ccc4cc[nH]c4c3)n2)ccc1N1CCN(C)CC1", "pIC50", 7.79],
  ["CN1CCN(c2ccc(Nc3ncc(C(F)(F)F)c(Nc4ccc5[nH]ccc5c4)n3)cc2)CC1", "pIC50", 6.92],
  ["CN1CCN(c2ccc(Nc3ncc(Br)c(Nc4ccc5[nH]ncc5c4)n3)cc2)CC1", "pIC50", 7.41],
  ["CN1CCN(c2ccc(Nc3ncc(Br)c(Nc4ccc5cc[nH]c5c4)n3)cc2)CC1", "pIC50", 7.72],
  ["CN1CCN(c2ccc(Nc3ncc(Br)c(Nc4ccc5c(c4)CCC5)n3)cc2)CC1", "pIC50", 7.46],
  ["CN1CCN(c2ccc(Nc3nccc(Nc4ccc5[nH]ccc5c4)n3)cc2)CC1", "pIC50", 6.66],
  ["C=CC(=O)Nc1cc(Nc2ncc(Br)c(Nc3ccc4cc[nH]c4c3)n2)ccc1N(C)CCN(C)C", "pIC50", 6.70],
  ["CN1CCN(c2ccc(Nc3ncc(F)c(Nc4ccc5[nH]ccc5c4)n3)cc2)CC1", "pIC50", 6.74],
  ["C=CC(=O)Nc1cc(Nc2ncc(Br)c(Nc3ccc4c(c3)CCC4)n2)c(OC)cc1N1CCN(C)CC1", "pIC50", 8.49],
  ["CN1CCN(c2ccc(Nc3ncc(Br)c(Nc4ccc5cn[nH]c5c4)n3)cc2)CC1", "pIC50", 7.37]
]}
